Below, each of the binders is paired with its reported koff value.
- TARGET_OF_ASSAY: T1, recombinant human IL-27 (human, UniProt Q14213 21-229; Q8NEV9 29-243)
- T1 construct: Bought from R&D Systems (Cat. 2526-IL); also called hIL-27; rhIL-27
- T1 sequence 1: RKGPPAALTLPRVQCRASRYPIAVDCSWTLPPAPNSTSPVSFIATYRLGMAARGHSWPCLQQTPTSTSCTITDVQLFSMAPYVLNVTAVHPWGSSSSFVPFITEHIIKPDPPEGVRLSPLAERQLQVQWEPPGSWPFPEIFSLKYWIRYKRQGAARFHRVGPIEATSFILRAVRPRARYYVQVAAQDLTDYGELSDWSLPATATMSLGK
- T1 sequence 2: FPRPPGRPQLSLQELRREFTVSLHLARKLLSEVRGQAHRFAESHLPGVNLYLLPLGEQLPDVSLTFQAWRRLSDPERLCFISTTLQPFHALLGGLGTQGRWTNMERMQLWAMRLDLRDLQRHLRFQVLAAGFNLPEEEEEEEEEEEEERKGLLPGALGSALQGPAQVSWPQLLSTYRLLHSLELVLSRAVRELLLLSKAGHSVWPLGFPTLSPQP
- MEASUREMENT_DESCRIPTION: SPR, hIL-27 on CM5 chip, bivalent analyte model (kd1)
Record the result as number plus unit.

## Task Which koff reading was recorded for the binder Ab7.22 (antibody, human IgG1, kappa, V domains shown, human IgG1/kappa) VH: EVQLVESGGGLVQPGGSLRLSCAASGFTFTSYSMSWVRQAPGKGLEWVSYISYDGGSAYYPDTVKGRFTISRDNSKNTLYLQMNSLRAEDTAVYYCARHGDYDDDDAMDYWGQGTLVTVSS VL: DIQMTQSPSSLSASVGDRVTITCRASENIYSYLAWYQQKPGKAPKLLVYNAETLTEGVPSRFSGSGSGTDFTLTISSLQPEDFATYYCQHHYGTPLTFGQGTKLEIKR ?
## Result 0.0027 s⁻¹

## Task Which koff reading was recorded for the binder Ab7.20 (antibody, human IgG1, kappa, V domains shown, human IgG1/kappa) VH: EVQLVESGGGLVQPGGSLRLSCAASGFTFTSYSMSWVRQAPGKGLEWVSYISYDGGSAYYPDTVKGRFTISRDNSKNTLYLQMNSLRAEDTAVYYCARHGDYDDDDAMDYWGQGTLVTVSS VL: DIQMTQSPSSLSASVGDRVTITCRASENIYSYLAWYQQKQGKAPKLLVYNAETLTEGVPSRFSGSGSGTDFTLTISSLQPEDFANYYCQHHYGTPLTFGQGTKLDIKR ?
## Result 0.0025 s⁻¹

## Task Which koff reading was recorded for the binder Ab7.10 (antibody, human IgG1, kappa, V domains shown, human IgG1/kappa) VH: EVQLVESGGGLVQPGGSLRLSCAASGFTFTSYSMSWVRQAPGKGLEWVAYISYDGGSAYYPDTVKGRFTISRDNSKNTLYLQMSSLKSEDTAMYYCARHGDYDDDDAMDYWGQGTLVTVSS VL: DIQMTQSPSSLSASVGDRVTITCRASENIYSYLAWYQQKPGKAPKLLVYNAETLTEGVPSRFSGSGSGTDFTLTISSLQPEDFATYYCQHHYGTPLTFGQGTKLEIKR ?
## Result 0.0025 s⁻¹
